The measurements presented in this section are drawn from ChEMBL document CHEMBL2203036.

- ASSAYED TARGET: UniProtKB P23977
- Sequence (P23977 whole entry): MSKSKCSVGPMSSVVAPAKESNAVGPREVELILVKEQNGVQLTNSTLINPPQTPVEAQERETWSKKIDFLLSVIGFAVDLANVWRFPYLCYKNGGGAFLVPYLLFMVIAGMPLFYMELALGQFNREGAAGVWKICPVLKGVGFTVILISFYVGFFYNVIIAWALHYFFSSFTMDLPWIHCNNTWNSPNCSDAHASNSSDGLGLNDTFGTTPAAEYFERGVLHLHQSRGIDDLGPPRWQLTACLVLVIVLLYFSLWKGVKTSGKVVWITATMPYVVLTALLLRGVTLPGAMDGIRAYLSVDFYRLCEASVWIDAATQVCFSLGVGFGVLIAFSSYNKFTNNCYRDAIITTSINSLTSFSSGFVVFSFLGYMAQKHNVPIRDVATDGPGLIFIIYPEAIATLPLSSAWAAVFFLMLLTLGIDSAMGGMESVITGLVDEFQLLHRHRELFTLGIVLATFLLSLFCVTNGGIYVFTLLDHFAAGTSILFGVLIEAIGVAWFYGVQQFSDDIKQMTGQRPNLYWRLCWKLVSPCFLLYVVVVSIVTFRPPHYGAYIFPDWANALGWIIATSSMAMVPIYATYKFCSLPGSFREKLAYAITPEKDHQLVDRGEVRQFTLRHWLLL
- METHOD SUMMARY: Inhibition of DAT-mediated [3H]DA in rat synaptosomes by scintillation counting
- Assay type: subcellular, Brain
Listed here are molecules together with their documented IC50.
OBSERVED PROPERTY: IC50 (nM)

• Cl.Clc1ccc(Sc2ccccc2N2CCNCC2)c(Cl)c1 = 250
• Cl.Clc1ccc(Sc2ccccc2N2CCNCC2)cc1 = 37
• Cc1ccc(Sc2ccccc2N2CCNCC2)c(Cl)c1.Cl = 320
• Cc1ccc(Sc2ccccc2N2CCNCC2)cc1C.Cl = 120
• Cc1ccc(Sc2ccccc2N2CCNCC2)c(C)c1.Cl = 890
• Cc1cccc(Sc2ccccc2N2CCNCC2)c1C = 170
• Cc1ccc(Sc2ccccc2N2CCNCC2)cc1.Cl = 110

###

- ASSAYED TARGET: 5-hydroxytryptamine receptor 1B (Homo sapiens, UniProt P28222)
- Sequence (P28222 whole entry): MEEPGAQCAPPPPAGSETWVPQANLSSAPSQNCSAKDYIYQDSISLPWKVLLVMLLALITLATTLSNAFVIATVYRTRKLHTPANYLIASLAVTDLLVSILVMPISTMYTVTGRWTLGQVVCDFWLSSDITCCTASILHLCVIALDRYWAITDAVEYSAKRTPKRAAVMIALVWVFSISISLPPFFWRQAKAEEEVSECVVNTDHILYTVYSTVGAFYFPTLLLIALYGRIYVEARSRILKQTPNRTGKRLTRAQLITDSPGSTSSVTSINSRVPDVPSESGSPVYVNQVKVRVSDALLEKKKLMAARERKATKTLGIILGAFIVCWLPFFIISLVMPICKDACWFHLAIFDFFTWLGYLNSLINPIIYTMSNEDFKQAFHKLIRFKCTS
- METHOD SUMMARY: Partial agonist activity at human 5HT1B receptor expressed in CHO cells assessed as [35S]GTPgammaS binding
OBSERVED PROPERTY: EC50 (nM)

* Cc1ccc(Sc2ccccc2N2CCNCC2)c(C)c1.Cl | 120

###

- ASSAYED TARGET: 5-hydroxytryptamine receptor 3A (Homo sapiens, UniProt P46098)
- Sequence (P46098 whole entry): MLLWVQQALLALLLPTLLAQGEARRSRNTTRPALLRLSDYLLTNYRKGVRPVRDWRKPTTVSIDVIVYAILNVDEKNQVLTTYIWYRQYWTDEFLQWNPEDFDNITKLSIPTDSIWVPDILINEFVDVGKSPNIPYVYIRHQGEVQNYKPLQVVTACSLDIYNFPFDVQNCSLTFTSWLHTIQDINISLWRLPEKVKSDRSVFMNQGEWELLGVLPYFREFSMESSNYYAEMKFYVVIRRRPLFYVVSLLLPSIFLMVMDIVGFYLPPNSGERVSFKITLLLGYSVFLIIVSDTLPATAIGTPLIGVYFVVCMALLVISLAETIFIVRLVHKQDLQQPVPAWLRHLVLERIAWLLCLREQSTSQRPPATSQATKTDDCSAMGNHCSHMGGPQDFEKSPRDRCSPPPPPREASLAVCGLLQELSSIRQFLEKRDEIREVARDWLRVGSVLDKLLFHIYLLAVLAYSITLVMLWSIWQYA
- METHOD SUMMARY: Displacement of [3H]granisetron from human 5HT3A receptor expressed in HEK293 cells by filter binding assay
- Format: cell-based
pKi: −log10 of the molar value.
Classification field: enter yes (1) for pKi values not below 7, no (0) for values below it.

- COc1ccc(Sc2ccccc2N2CCNCC2)cc1: yes (1)
- Cc1ccc(Oc2ccccc2N2CCNCC2)c(C)c1: no (0)
- Cc1ccc(Sc2ccc(Cl)cc2)c(N2CCNCC2)c1: no (0)
- O=C1CC2(CCCC2)CC(=O)N1CCCCN1CCN(c2ncccn2)CC1 [BUSPIRONE]: no (0)
- Fc1ccc(Sc2ccccc2N2CCNCC2)cc1: yes (1)
- Cc1cccc(Sc2ccccc2N2CCNCC2)c1C: yes (1)
- Cc1ccc(Sc2c(C)cccc2N2CCNCC2)c(C)c1: no (0)
- Cl.Clc1ccc(Sc2ccccc2N2CCNCC2)cc1: yes (1)
- Cc1ccc(Sc2ccccc2N2CCNCC2)cc1.Cl: yes (1)

###

- ASSAYED TARGET: 5-hydroxytryptamine receptor 3A (Homo sapiens, UniProt P46098)
- METHOD SUMMARY: Displacement of [3H]granisetron from human 5HT3A receptor expressed in HEK293 cells by filter binding assay
- Type: cell-based
pKi: −log10 of the molar value.
pKi by entry:
OBSERVED PROPERTY: pKi

• COc1cccc(Sc2ccccc2N2CCNCC2)c1 = 7.21
• Cc1ccc(Sc2ccccc2N2CCNCC2)c(C)c1.Cl = 7.64
• Cc1ccccc1Sc1ccccc1N1CCNCC1 = 7.49
• Cc1ccc(Sc2cc(C)ccc2N2CCNCC2)c(C)c1 = 7.35
• COc1ccc(Sc2ccccc2N2CCNCC2)c(OC)c1 = 7.49
• Cc1ccc(Sc2ccc(C)cc2N2CCNCC2)c(C)c1 = 6.82
• Cc1ccc(Sc2cccc(C)c2N2CCNCC2)c(C)c1 = 6.80
• Cc1ccc(Sc2ccccc2N2CCCNCC2)c(C)c1 = 7.57
• COc1ccccc1Sc1ccccc1N1CCNCC1 = 7.28
• COc1ccc(Sc2ccccc2N2CCNCC2)cc1OC = 7.07
• Cc1ccc(Sc2ccccc2N2CCNCC2)cc1C.Cl = 7.48
• COc1ccc(Sc2ccc(C)cc2N2CCNCC2)cc1 = 6.72
• Cc1ccc(Sc2ccc(C)cc2N2CCNCC2)cc1 = 6.59

###

- ASSAYED TARGET: UniProt P46098
- METHOD SUMMARY: Displacement of [3H]granisetron from human 5HT3A receptor expressed in HEK293 cells by filter binding assay
- Assay type: cell-based
Labelling: Ki reported below 300 nM becomes condition met; at or above becomes condition not met.

* Cl.Clc1ccc(Sc2ccccc2N2CCNCC2)c(Cl)c1 | condition met
* Cc1ccc(Sc2ccccc2)c(N2CCNCC2)c1 | condition not met
* Cc1ccc(Sc2ccc(F)cc2)c(N2CCNCC2)c1 | condition not met
* COc1ccc(Sc2ccccc2N2CCNCC2)c(Cl)c1 | condition met
* CC(C)(C)c1ccc(Sc2ccccc2N2CCNCC2)cc1 | condition not met
* Cc1ccc(Sc2ccccc2N2CCNCC2)c(Cl)c1.Cl | condition met
* FC(F)(F)c1ccc(Sc2ccccc2N2CCNCC2)cc1 | condition met
* COc1cc(C)ccc1Sc1ccccc1N1CCNCC1 | condition met

###

Listing of entries alongside the reported pIC50.
- ASSAYED TARGET: Sodium-dependent serotonin transporter (Rattus norvegicus, UniProt P31652)
- Sequence (P31652 whole entry): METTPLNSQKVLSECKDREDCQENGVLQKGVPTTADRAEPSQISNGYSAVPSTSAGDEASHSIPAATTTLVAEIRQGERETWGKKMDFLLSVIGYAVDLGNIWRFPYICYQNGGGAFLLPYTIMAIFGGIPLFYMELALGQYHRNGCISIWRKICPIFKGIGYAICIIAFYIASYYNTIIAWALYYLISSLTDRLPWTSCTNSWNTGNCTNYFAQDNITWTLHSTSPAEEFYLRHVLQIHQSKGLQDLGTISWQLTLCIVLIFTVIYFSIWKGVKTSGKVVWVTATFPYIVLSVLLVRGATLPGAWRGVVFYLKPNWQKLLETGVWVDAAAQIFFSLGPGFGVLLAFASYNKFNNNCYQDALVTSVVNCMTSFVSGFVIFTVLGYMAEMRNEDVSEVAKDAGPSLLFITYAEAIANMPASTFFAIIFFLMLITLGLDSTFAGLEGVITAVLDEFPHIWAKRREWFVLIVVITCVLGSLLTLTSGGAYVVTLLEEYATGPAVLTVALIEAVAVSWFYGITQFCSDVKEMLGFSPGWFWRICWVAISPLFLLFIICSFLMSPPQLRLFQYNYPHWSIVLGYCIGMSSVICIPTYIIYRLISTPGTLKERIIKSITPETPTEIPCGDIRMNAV
- METHOD SUMMARY: Inhibition of SERT-mediated [3H]5HT uptake in rat synaptosomes by scintillation counting
pIC50: −log10 of the molar value.
OBSERVED PROPERTY: pIC50

* COc1ccc(Sc2ccccc2N2CCNCC2)c(OC)c1 | 8.12
* COc1ccc(Sc2ccccc2N2CCNCC2)cc1OC | 7.82
* FC(F)(F)c1ccc(Sc2ccccc2N2CCNCC2)cc1 | 8.16
* Cc1ccc(Sc2ccccc2)c(N2CCNCC2)c1 | 6.82
* Cc1ccc(Sc2ccccc2N2CCNCC2)cc1C.Cl | 8.24
* Cc1cccc(Sc2ccccc2N2CCNCC2)c1 | 7.27
* COc1cc(C)ccc1Sc1ccccc1N1CCNCC1 | 7.96
* Cc1ccc(Sc2c(C)cccc2N2CCNCC2)c(C)c1 | 6.27
* COc1ccc(Sc2ccccc2N2CCNCC2)c(Cl)c1 | 8.37
* Cc1ccc(Sc2ccccc2N2CCNCC2)c(Cl)c1.Cl | 8.01
* CC(C)(C)c1ccc(Sc2ccccc2N2CCNCC2)cc1 | 5.68
* COc1ccccc1Sc1ccccc1N1CCNCC1 | 6.48
* Cc1ccc(Sc2ccc(Cl)cc2)c(N2CCNCC2)c1 | 8.02

###

- METHOD SUMMARY: Inhibition of NET-mediated [3H]NE in rat synaptosomes by scintillation counting
- Assay type: subcellular, Brain
Measured IC50, listed per entry.
OBSERVED PROPERTY: IC50 (µM)

* Cc1ccc(Sc2ccccc2N2CCNCC2)c(Cl)c1.Cl | 0.34
* Cc1ccc(Sc2ccccc2N2CCNCC2)cc1C.Cl | 0.88
* Cc1ccc(Sc2ccccc2N2CCNCC2)c(C)c1.Cl | 0.14
* Cl.Clc1ccc(Sc2ccccc2N2CCNCC2)cc1 | 0.16
* Cc1ccc(Sc2ccccc2N2CCNCC2)cc1.Cl | 0.46
* Cl.Clc1ccc(Sc2ccccc2N2CCNCC2)c(Cl)c1 | 0.12

###

- ASSAYED TARGET: 5-hydroxytryptamine receptor 5A (Homo sapiens, UniProt P47898)
- Sequence (P47898 whole entry): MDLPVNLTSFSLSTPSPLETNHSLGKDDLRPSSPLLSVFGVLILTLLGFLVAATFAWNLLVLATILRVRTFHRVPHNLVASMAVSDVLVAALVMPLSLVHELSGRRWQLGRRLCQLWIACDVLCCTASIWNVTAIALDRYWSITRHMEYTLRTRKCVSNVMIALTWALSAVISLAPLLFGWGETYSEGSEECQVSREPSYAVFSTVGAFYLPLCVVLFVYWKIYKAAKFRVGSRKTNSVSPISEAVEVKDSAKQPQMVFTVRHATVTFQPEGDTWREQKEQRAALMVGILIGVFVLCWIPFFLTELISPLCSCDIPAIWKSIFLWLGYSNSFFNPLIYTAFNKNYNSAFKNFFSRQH
- METHOD SUMMARY: Binding affinity to human 5HT5A receptor
OBSERVED PROPERTY: Ki

* Cc1ccc(Sc2ccccc2N2CCNCC2)c(C)c1.Cl | 220 nM

###

Entries and their CLH values follow.
- System: Liver microsomes
- METHOD SUMMARY: Intrinsic clearance in rat liver microsomes at 1 uM after 60 mins by LC-MS/MS analysis
- Assay type: ADME, Microsome
- CONDITION DESCRIPTION: 1 h
OBSERVED PROPERTY: CLH (mL/min)

• Cc1ccc(Sc2ccccc2N2CCNCC2)c(Cl)c1.Cl = 120
• Cl.Clc1ccc(Sc2ccccc2N2CCNCC2)cc1 = 70
• Cc1ccc(Sc2ccccc2N2CCNCC2)cc1.Cl = 260
• Cl.Clc1ccc(Sc2ccccc2N2CCNCC2)c(Cl)c1 = 38
• Cc1ccc(Sc2ccccc2N2CCNCC2)cc1C.Cl = 290
• Cc1ccc(Sc2ccccc2N2CCNCC2)c(C)c1.Cl = 55

###

Recorded Ratio IC50, one value per entry.
- Species: Rattus norvegicus
- METHOD SUMMARY: Selectivity ratio of IC50 for DAT to IC50 for SERT in rat synaptosomes
- CONDITION DESCRIPTION: Brain
OBSERVED PROPERTY: Ratio IC50

• Cl.Clc1ccc(Sc2ccccc2N2CCNCC2)c(Cl)c1 = 48
• Cc1cccc(Sc2ccccc2N2CCNCC2)c1C = 38
• Cl.Clc1ccc(Sc2ccccc2N2CCNCC2)cc1 = 2.8
• Cc1ccc(Sc2ccccc2N2CCNCC2)cc1.Cl = 6.1
• Cc1ccc(Sc2ccccc2N2CCNCC2)cc1C.Cl = 21
• Cc1ccc(Sc2ccccc2N2CCNCC2)c(Cl)c1.Cl = 33
• Clc1cccc(Sc2ccccc2N2CCNCC2)c1Cl = 1

###

- ASSAYED TARGET: Sodium-dependent serotonin transporter (Homo sapiens)
- Sequence (P31645 whole entry): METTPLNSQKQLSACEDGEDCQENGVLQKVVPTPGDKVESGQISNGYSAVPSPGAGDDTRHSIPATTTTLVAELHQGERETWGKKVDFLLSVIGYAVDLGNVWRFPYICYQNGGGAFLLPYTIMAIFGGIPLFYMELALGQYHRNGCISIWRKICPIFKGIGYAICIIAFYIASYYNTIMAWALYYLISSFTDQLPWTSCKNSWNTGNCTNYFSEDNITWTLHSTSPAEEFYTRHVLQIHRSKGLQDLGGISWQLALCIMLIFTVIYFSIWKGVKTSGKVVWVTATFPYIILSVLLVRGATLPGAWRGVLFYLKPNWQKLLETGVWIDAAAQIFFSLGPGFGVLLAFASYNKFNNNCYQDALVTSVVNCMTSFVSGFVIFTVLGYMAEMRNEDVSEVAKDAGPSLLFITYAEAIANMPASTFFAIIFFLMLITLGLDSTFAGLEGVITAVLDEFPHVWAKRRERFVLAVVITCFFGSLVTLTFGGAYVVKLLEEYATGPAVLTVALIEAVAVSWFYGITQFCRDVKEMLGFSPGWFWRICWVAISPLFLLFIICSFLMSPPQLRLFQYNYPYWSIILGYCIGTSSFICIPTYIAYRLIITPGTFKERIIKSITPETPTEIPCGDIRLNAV
pKi: −log10 of the molar value.
OBSERVED PROPERTY: pKi

* Cc1ccc(Sc2ccccc2N2CCNCC2)c(C)c1.Cl | 8.80

###

- ASSAYED TARGET: Beta-2 adrenergic receptor (Homo sapiens)
- Sequence (P07550 whole entry): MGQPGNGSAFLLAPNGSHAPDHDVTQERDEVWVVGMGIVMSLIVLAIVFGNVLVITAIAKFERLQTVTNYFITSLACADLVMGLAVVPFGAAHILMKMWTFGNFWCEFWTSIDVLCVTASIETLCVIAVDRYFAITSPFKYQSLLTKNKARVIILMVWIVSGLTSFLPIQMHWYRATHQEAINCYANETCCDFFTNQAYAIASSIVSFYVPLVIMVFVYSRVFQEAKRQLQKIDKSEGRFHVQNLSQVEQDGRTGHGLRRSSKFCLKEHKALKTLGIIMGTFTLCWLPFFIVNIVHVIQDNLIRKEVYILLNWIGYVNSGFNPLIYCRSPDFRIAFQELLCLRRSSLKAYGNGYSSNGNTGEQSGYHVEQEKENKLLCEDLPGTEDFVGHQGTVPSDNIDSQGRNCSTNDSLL
OBSERVED PROPERTY: Ki

* Cc1ccc(Sc2ccccc2N2CCNCC2)c(C)c1.Cl | 560 nM
